Below, each entry is listed with its recorded concentration at 0.5 h.
assay: Drug level in ICR mouse plasma at 10 mg/kg, po measured after 0.5 hrs by LC-MS/MS analysis; type: ADME, organism-based
# number only, unit ng/mL dropped from output

# count of solved cases: 3
CCCN(CCCCNC(=O)c1ccc2ccccc2c1)C[C@@H]1C[C@H]1c1cccc(Cl)c1Cl.Cl; 28.4
CCCN(CCCCNC(=O)c1cc2ccccc2[nH]1)C[C@@H]1C[C@H]1c1cccc(Cl)c1Cl.Cl; 35.5
CCCN(CCCCNC(=O)c1ccc(-c2ccccn2)cc1)C[C@@H]1C[C@H]1c1cccc(Cl)c1Cl.Cl; 118

// next item, concentration at 0.5 h requested
The value of concentration at 0.5 h measured for the compound `CCCN(CCCCNC(=O)c1ccc(-c2ccccn2)cc1)C[C@@H]1C[C@H]1c1cc(F)ccc1OC.Cl` turned out to be 16.8
